Target: MAFG (Homo sapiens, UniProt O15525)
Sequence (O15525 51-114 limits assumed): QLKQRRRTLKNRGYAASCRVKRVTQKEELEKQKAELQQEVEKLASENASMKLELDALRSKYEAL
Experiment: Direct-binding FRET assay
Parameters: made in house
Conditions: 37°C; N-terminal rhodamine design; mean or single
Experimental: The direct binding assay was performed manually in 384-well plates and is similar to a previously described assay. Wells were filled with 20 μL of 1 mM TCEP-HCl. […] Briefly, the Kd of the designed peptide homodimer was experimentally determined and used with previously determined target homodimer Kd values to determine the heterodimer Kd. […] A minimum 15% change in the donor fluorescence upon titrating the acceptor peptide from 0 to 1000 nM was required for a fit to be attempted. […]
Where no end group is shown, it is not given here.
propertyMeasured: Kd

querySequence: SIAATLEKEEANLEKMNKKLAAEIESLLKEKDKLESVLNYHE [JUN-d1]
assayResult: > 1000 nM
